Target: T1, SNAP-GAL2R L255^6.54A (human, UniProt O43603 1-387, L255^6.54A, Lumi4-Tb on the SNAP tag)
T1 construct: also called L255A; source: HEK293, transfected, on cells; not shown: SNAP tag, N-terminal, kept
T1 sequence (looked up): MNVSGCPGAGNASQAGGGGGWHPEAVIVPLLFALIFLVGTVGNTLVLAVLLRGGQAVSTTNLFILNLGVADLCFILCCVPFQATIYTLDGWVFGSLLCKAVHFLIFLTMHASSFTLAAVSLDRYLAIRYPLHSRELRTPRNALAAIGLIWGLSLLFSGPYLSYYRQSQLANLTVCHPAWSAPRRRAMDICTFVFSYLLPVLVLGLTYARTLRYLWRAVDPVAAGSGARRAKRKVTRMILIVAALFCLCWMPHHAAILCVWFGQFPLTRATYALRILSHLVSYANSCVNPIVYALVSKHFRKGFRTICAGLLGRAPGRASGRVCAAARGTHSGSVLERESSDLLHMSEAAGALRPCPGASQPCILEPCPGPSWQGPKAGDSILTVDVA
Test: AlphaScreen or HTRF; saturation binding: HEK293 cells transfected with SNAP-tagged receptor (WT or mutant) and labelled with SNAP-Lumi4-Tb, incubated with increasing concentrations of galanin-A2 in the presence or absence of 100 uM unlabeled galanin, 1 h at room temperature; HTRF ratio 665 nm/620 nm
Details: one partner purified
MEASURE_NAME: Kd (nM)
Report as a plain number; the unit nM is understood.

(Q) // returns reported Kd for input GWTLNSAGYLLGPHAVGNHRSFSDKNGLTSC (dye A2 on the additional C-terminal cysteine, numbers count on: the mature protein; additional cysteine at the C-terminal end of the peptide, carries the dye A2; source: synthetic peptide (synthesized by Vazyme, China))
(A) 55.1
